organism: Sus scrofa; assay: Inhibition of Na/K-ATPase in porcine cerebral cortex relative to ouabain; type: tissue-based
Below, each entry is listed alongside its reported Activity.

molecule	Activity
C[C@]12CC[C@H]3[C@@H](CC[C@]4(O)C[C@@H](OC(=O)c5cccnc5)CC[C@]34C=O)[C@@]1(O)CC[C@@H]2C1=CC(=O)OC1	0.944
C[C@]12CC[C@H]3[C@@H](CC[C@]4(O)C[C@@H](O)CC[C@]34/C=N/Nc3ccccc3)[C@@]1(O)CC[C@@H]2C1=CC(=O)OC1	7.89
C[C@H]1O[C@@H](O[C@H]2CC[C@]3(C=O)[C@H]4CC[C@]5(C)[C@@H](C6=COC(=O)C6)CC[C@]5(O)[C@@H]4CC[C@]3(O)C2)C[C@@H]2OC3(CCCCC3)O[C@@H]21	0.872

Exercise: Name the recorded Activity for CC1OC(O[C@H]2CC[C@]3(/C=N/CCc4ccc(O)cc4)[C@H]4CC[C@]5(C)[C@@H](C6=CC(=O)OC6)CC[C@]5(O)[C@@H]4CC[C@]3(O)C2)CC(O)C1O (some centres undefined) .
Solution: 4.92
